Known growth inhibition of a selection of compounds
Tested on: DIPGX9 (diffuse intrinsic pontine glioma line)
Assay: growth inhibition (% activity, log2 RLU normalised to DMSO / staurosporine); higher = more growth inhibition
Conditions: 33 µM
Could you write the number and then its unit?

CC(C)(Oc1ccc(CCNC(=O)c2ccc(Cl)cc2)cc1)C(=O)O : 0.682%

INPUT: Entry under review: CO/N=C(\C(=O)N[C@@H]1C(=O)N2C(C(=O)O)=C(Cn3ccc(=N)n3CCO)CS[C@H]12)c1csc(N)n1 . Reported growth inhibition?
OUTPUT: 0.497%

INPUT: Next entry: C=C1/C(=C\C=C2/CCC[C@]3(C)[C@@H]([C@H](C)CCCC(C)C)CC[C@@H]23)C[C@@H](O)C[C@@H]1O
OUTPUT: 1.86%

INPUT: Now this one: CCOC(=O)c1c(CSc2ccccc2)n(C)c2cc(Br)c(O)c(CN(C)C)c12
OUTPUT: 0.402%

INPUT: Likewise for N#Cc1c(N(CC(=O)O)CC(=O)O)sc(C(=O)O)c1CC(=O)O ?
OUTPUT: 1.29%

INPUT: Let us now turn to O=c1cc[nH]c(=S)[nH]1
OUTPUT: 2.37%

INPUT: Repeat for the following compound: CC(=O)OCC[N+](C)(C)C
OUTPUT: 1.49%

INPUT: Cool, now O=C(O[C@H]1CN2CCC1CC2)N1CCc2ccccc2[C@@H]1c1ccccc1
OUTPUT: -0.425%

INPUT: Thanks! And Nc1nc(F)nc2c1ncn2[C@@H]1O[C@H](COP(=O)(O)O)[C@@H](O)[C@@H]1O ?
OUTPUT: 31.4%

INPUT: Same for CC(C)NCC(O)c1ccc(O)c(O)c1 (stereo not given)
OUTPUT: -0.316%

INPUT: What do you have for CC[N+](CC)(CC)CCOc1cccc(OCC[N+](CC)(CC)CC)c1OCC[N+](CC)(CC)CC ?
OUTPUT: 3.16%

INPUT: And CCCCNC(=O)NS(=O)(=O)c1ccc(C)cc1 ?
OUTPUT: 1.33%

INPUT: What do we get for CCOC(=O)CC(=O)N1CCSC1COc1ccccc1OC (stereo not given) ?
OUTPUT: 1.18%

INPUT: Cool, now CCCCCCCCCCCCCCCC[N+](C)(C)C
OUTPUT: 22.2%

INPUT: Entry C[C@H](CCC(=O)O)[C@H]1CC[C@H]2[C@@H]3CC[C@@H]4C[C@H](O)CC[C@]4(C)[C@H]3CC[C@]12C please
OUTPUT: -2.11%

INPUT: One more compound: CCCCCCCCCC(=O)NC1C(Oc2c3cc4cc2Oc2ccc(cc2Cl)C(OC2OC(CO)C(O)C(O)C2NC(C)=O)C2NC(=O)C(NC(=O)C4NC(=O)C4NC(=O)C(Cc5ccc(c(Cl)c5)O3)NC(=O)C(N)c3ccc(O)c(c3)Oc3cc(O)cc4c3)c3ccc(O)c(c3)-c3c(OC4OC(CO)C(O)C(O)C4O)cc(O)cc3C(C(=O)O)NC2=O)OC(CO)C(O)C1O (stereo not given)
OUTPUT: 0.4%

INPUT: Query CC(=O)N1CCN(c2ccc(OCC3COC(Cn4ccnc4)(c4ccc(Cl)cc4Cl)O3)cc2)CC1 (stereo not given) next
OUTPUT: 4.81%

INPUT: Now consider C[N+](C)(CCOc1ccccc1)Cc1ccccc1.O=C([O-])c1cc2ccccc2cc1O .
OUTPUT: -0.621%

INPUT: Would you kindly repeat that for CN[C@@H]1[C@H](O)[C@H](NC)[C@H]2O[C@@]3(O)C(=O)C[C@@H](C)O[C@H]3O[C@@H]2[C@H]1O ?
OUTPUT: 2.81%

INPUT: Next compound: NS(=O)(=O)c1cc2c(cc1Cl)N=CNS2(=O)=O
OUTPUT: -2.53%

INPUT: Likewise for Nc1cccc2c1CN(C1CCC(=O)NC1=O)C2=O (stereo not given) ?
OUTPUT: 2.15%

INPUT: Same read-out for CC1=C(C(=O)O)N2C(=O)[C@@H](NC(=O)[C@H](N)c3ccccc3)[C@H]2SC1 ?
OUTPUT: -1.35%
